System: CAL-85-1
Experiment: normalised viability (% of control), CellTiter-Blue; higher = more viable cells (about 100 = DMSO control)
Conditions: incubation time: 72 h
Labelling field: enter Fulfilled if recorded normalised viability is less than 70%. Enter Not fulfilled if it equals or exceeds that cut-off.

molecule: COc1cccc2cc(-c3nc([C@H]4CC[C@H](C(=O)O)CC4)n4ncnc(N)c34)[nH]c12 [OSI-027] (1000 nM)
group: Fulfilled

Read the next record carefully.
Data request: Quick check: does C[C@]1(c2nc3c(C(N)=O)cccc3[nH]2)CCCN1 [Veliparib] (1000 nM) have normalised viability under 70%?
Data returned: Not fulfilled
